assay info: chemical genetic growth profiling, strain panel (AID 1159580);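 further: tested at 20 µM; growth read once vehicle control cultures reached saturation at 30 °C; 1 = growth at the plate median or of vehicle wells; lower values mean less growth of the strain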
test context: S. cerevisiae deletion strains, growth OD, locus YNL307C, strain MCK1, active compounds read low
In all, about 5,500 compounds went through this assay and about 2,000 (36%) were called active. About 18% were inconclusive and are not listed. The list shows a part of the results.
property: normalized growth
Lab note: jot down the number only; don't add units.

Write down normalized growth measured for item `Cc1c(N(C)CS(=O)(=O)O)c(=O)n(-c2ccccc2)n1C`
0.987

Write down normalized growth measured for item `CCS(=O)(=O)CCn1c([N+](=O)[O-])cnc1C`
1.05

Write down normalized growth measured for item `COc1ccc2[nH]cc(CCNC(C)=O)c2c1`
1.04

Write down normalized growth measured for item C[C@]12C=CC(=O)C=C1CCC1C2C(=O)C[C@@]2(C)C1CC[C@]2(O)C(=O)CO (stereo not given in full)
0.998

Write down normalized growth measured for item C[C@]12C=CC(=O)C=C1CCC1C2CC[C@]2(C)C(=O)CCC12 (stereo not given in full)
0.982

----------
assay info: chemical genetic growth profiling, strain panel (AID 1159580);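 further: tested at 20 µM; growth read once vehicle control cultures reached saturation at 30 °C; 1 = growth at the plate median or of vehicle wells; lower values mean less growth of the strain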
test context: S. cerevisiae deletion strains, growth OD, locus YDR069C, strain doa4, active compounds read low
In all, about 5,500 compounds went through this assay and about 2,000 (36%) were called active. About 18% were inconclusive and are not listed. Some of the results follow.
property: normalized growth

Write down normalized growth measured for item `O=C1c2ccc(O)c(O)c2C(=O)c2c(O)ccc(O)c21`
0.399 (active)

Write down normalized growth measured for item `COC(=O)C1=CO[C@@H](O[C@@H]2O[C@H](CO)[C@@H](O)[C@H](O)[C@H]2O)[C@@H]2[C@@H](C)[C@@H](O)C[C@H]12`
0.998 (inactive)

Write down normalized growth measured for item `CCOc1ccc(Cc2nccc3cc(OCC)c(OCC)cc23)cc1OCC`
0.982 (inactive)

Write down normalized growth measured for item `O=C(O)CCCN1C(=O)c2cccc3cccc(c23)C1=O`
1.02 (inactive)

Write down normalized growth measured for item `O=c1[nH]c2ccccc2n1C1CCN(CCCC(c2ccc(F)cc2)c2ccc(F)cc2)CC1`
0.854 (active)

Write down normalized growth measured for item `O=C(CCCN1CC=C(n2c(=O)[nH]c3ccccc32)CC1)c1ccc(F)cc1`
0.952 (inactive)

Write down normalized growth measured for item `O=c1ccc2ccc(O)c(O)c2o1`
0.982 (inactive)

Write down normalized growth measured for item `Cc1cc(O)c2c(c1O)C(=O)c1c(O)cc(C)c(O)c1C2=O`
0.942 (inactive)

Write down normalized growth measured for item `COc1ccc2c(=O)c(CC(=O)O)coc2c1`
0.953 (inactive)

Write down normalized growth measured for item `COc1ccc(Cc2nccc3cc(OC)c(OC)cc23)cc1OC`
0.989 (inactive)

----------
assay info: chemical genetic growth profiling, strain panel (AID 1159580);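 further: tested at 20 µM; growth read once vehicle control cultures reached saturation at 30 °C; 1 = growth at the plate median or of vehicle wells; lower values mean less growth of the strain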
test context: S. cerevisiae deletion strains, growth OD, locus YKR001C, strain vps1, active compounds read low
The whole screen tested about 5,500 compounds, of which about 2,000 (36%) were called active. About 18% were inconclusive and are not listed. The list shows a part of the results.
One threshold, 1, splits the recorded normalized growth values: lower ones are 1, equal or higher ones are -1.

is_below(normalized growth, 1) for `COc1ccc2c(=O)c(CC(=O)O)coc2c1` ?
-1

is_below(normalized growth, 1) for `OCCN1CCN(CCCN2c3ccccc3Sc3ccc(Cl)cc32)CC1` ?
-1

is_below(normalized growth, 1) for `O=c1[nH]c2ccccc2n1C1CCN(CCCC(c2ccc(F)cc2)c2ccc(F)cc2)CC1` ?
1

is_below(normalized growth, 1) for `COc1cc(O)c(C(=O)c2ccccc2)c(OC)c1` ?
1

is_below(normalized growth, 1) for `C=C(C)c1cc2cc(C(C)=O)c(O)cc2o1` ?
1

is_below(normalized growth, 1) for CCOc1nc2cccc(C(=O)OC(C)OC(=O)OC3CCCCC3)c2n1Cc1ccc(-c2ccccc2-c2nn[nH]n2)cc1 (stereo not drawn) ?
1

is_below(normalized growth, 1) for `COc1cc(OC)cc(OC)c1` ?
1

is_below(normalized growth, 1) for `CCNc1nc(Cl)nc(NC(C)C)n1` ?
-1

is_below(normalized growth, 1) for CCCC(=O)Nc1ncnc2c1ncn2C1O[C@@H]2COP(=O)(O)O[C@H]2[C@H]1OC(=O)CCC (stereo partly drawn) ?
-1

is_below(normalized growth, 1) for `Nc1ncnc2c1ncn2[C@@H]1O[C@H](CO)[C@@H](O)[C@@H]1O` ?
-1

----------
assay info: chemical genetic growth profiling, strain panel (AID 1159580);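 further: tested at 20 µM; growth read once vehicle control cultures reached saturation at 30 °C; 1 = growth at the plate median or of vehicle wells; lower values mean less growth of the strain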
test context: S. cerevisiae deletion strains, growth OD, locus YML124C, strain tub3, active compounds read low
Out of some 5,500 compounds screened, about 2,000 (36%) were called active. About 18% were inconclusive and are not listed. The list shows a part of the results.
Assignment: determine reported normalized growth for the given compounds.
Lab note: jot down the number only; don't add units.

Write down normalized growth measured for item `Nc1ncnc2nc[nH]c12`
1

Write down normalized growth measured for item CC(=O)OC1CCC2C3CCc4cc(O)ccc4C3CCC12C (stereo not drawn)
1.01

Write down normalized growth measured for item `CN1CCN(CCCN2c3ccccc3Sc3ccc(Cl)cc32)CC1`
0.997

Write down normalized growth measured for item CC(=O)OC1CCC23C(=O)OC45CCC(C6=CC(=O)OC6)C4(C)CCC2C5CCC3(O)C1 (stereo not drawn)
1.01

Write down normalized growth measured for item `COc1ccc2c(c1)[nH]c1c(C)nccc12`
0.982

Write down normalized growth measured for item `COc1cc2ccc(=O)oc2cc1O`
1.01

Write down normalized growth measured for item CC(C(=O)O)c1ccc(N2Cc3ccccc3C2=O)cc1 (stereo not drawn)
0.993

Write down normalized growth measured for item C/C=C(\C)C(=O)OC1[C@@H]2C=C3C4CC(=O)O[C@@H](c5ccoc5)[C@]4(C)CCC3[C@@](C)(C2=O)[C@@H](C(O)C(=O)OC)C1(C)C (stereo partly drawn)
1.01

Write down normalized growth measured for item `CC(C)=CCc1c(O)cc2occ(-c3ccc4c(c3)OCO4)c(=O)c2c1O`
1.02

Write down normalized growth measured for item `N#Cc1ccc2c(c1)N(CCCN1CCC(O)CC1)c1ccccc1S2`
1.02

Write down normalized growth measured for item COc1cc(OC)c2c(c1Cl)OC1(C2=O)C(O)=CC(=O)CC1C (stereo not drawn)
0.991

Write down normalized growth measured for item `Cn1cnc([N+](=O)[O-])c1Sc1ncnc2nc[nH]c12`
0.994

Write down normalized growth measured for item CCOC(=O)C1=C(C)NC(C)=C(C(=O)OC)C1c1cccc([N+](=O)[O-])c1 (stereo not drawn)
1

Write down normalized growth measured for item `COc1cc2c(cc1-c1coc3c4c(c(OC)cc3c1=O)OC(C)(C)C=C4)OCO2`
1

Write down normalized growth measured for item `CC1(C)C=Cc2c(cc3occ(-c4ccc5c(c4)OCO5)c(=O)c3c2O)O1`
1.02

Write down normalized growth measured for item `c1coc(CNc2ncnc3nc[nH]c23)c1`
1

Write down normalized growth measured for item `Nc1ncnc2c1ncn2[C@@H]1O[C@H](CO)[C@@H](O)[C@@H]1O`
1.03

Write down normalized growth measured for item `O=[N+]([O-])/N=C1/NCCN1Cc1ccc(Cl)cc1`
0.985

Write down normalized growth measured for item COC(=O)C[C@H]1C(C)(C)[C@@H](OC(C)=O)[C@@H]2CC3C4CC(=O)O[C@@H](c5ccoc5)[C@]4(C)CCC3[C@@]1(C)C2=O (stereo partly drawn)
1.01

Write down normalized growth measured for item `NCCS`
1.02

Write down normalized growth measured for item CCCC(=O)Nc1ncnc2c1ncn2C1O[C@@H]2COP(=O)(O)O[C@H]2[C@H]1OC(=O)CCC (stereo partly drawn)
1.01

Write down normalized growth measured for item `c1ccc2c(c1)[nH]c1cnccc12`
0.987

Write down normalized growth measured for item `COc1cc2ccc(=O)oc2c(OC)c1OC`
1.02

Write down normalized growth measured for item CC(C)CCCC(C)C1CCC2C3CCC4CC(=O)CCC4(C)C3CCC12C (stereo not drawn)
1.01

Write down normalized growth measured for item `COc1ccc(Cc2nccc3cc(OC)c(OC)cc23)cc1OC`
0.988

Write down normalized growth measured for item `CC(C)=CCOc1c2occc2cc2ccc(=O)oc12`
0.827

Write down normalized growth measured for item `CCOc1ccc(Cc2nccc3cc(OCC)c(OCC)cc23)cc1OCC`
0.979

Write down normalized growth measured for item `O=c1ccc2cc(O[C@@H]3O[C@H](CO)[C@@H](O)[C@H](O)[C@H]3O)c(O)cc2o1`
0.991

Write down normalized growth measured for item `O=c1n(CCCN2CCN(c3cccc(Cl)c3)CC2)nc2ccccn12`
0.989

Write down normalized growth measured for item `COc1ccc2ccc(=O)oc2c1CC=C(C)C`
0.859

Write down normalized growth measured for item `COc1ccc2c(=O)c(CC(=O)O)coc2c1`
0.994

Write down normalized growth measured for item CC1=C(C(=O)O)N2C(=O)[C@@H](NC(=O)[C@H](N)C3=CCC=CC3)C2SC1 (stereo partly drawn)
0.995

Write down normalized growth measured for item `CC(C)=CCOc1cc2oc(=O)ccc2cc1O`
0.949
